# assayed system: hCaSR (Calcium sensing receptor) in stably transfected HEK293 cells (Homo sapiens)
# Sequence (P41180 20-1078): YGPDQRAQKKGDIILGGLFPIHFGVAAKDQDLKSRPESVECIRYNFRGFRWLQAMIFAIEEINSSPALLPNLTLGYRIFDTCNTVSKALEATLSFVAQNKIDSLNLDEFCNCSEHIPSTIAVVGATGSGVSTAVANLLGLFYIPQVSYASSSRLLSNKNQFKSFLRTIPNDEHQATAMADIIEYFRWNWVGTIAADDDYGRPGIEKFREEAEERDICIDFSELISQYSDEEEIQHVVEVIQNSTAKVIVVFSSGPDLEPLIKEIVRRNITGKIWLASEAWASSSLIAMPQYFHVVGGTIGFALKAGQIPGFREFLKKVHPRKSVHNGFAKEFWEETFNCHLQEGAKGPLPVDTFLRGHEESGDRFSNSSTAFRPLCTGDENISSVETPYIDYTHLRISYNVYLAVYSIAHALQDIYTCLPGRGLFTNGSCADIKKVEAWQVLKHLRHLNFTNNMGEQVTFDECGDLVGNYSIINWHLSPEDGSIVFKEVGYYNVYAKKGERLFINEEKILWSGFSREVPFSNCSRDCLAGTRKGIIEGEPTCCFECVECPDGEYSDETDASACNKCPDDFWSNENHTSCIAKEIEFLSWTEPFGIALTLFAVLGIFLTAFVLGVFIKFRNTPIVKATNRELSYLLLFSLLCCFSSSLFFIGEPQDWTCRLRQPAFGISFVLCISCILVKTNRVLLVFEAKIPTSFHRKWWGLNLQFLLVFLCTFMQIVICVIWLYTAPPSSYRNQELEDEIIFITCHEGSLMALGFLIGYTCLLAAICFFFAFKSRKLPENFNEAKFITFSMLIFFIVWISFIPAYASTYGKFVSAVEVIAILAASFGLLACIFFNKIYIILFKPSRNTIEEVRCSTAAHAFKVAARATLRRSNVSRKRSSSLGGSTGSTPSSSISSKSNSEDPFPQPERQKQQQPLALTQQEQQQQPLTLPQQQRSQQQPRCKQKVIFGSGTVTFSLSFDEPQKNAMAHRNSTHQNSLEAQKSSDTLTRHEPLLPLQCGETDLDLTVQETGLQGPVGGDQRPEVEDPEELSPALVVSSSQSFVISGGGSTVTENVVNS
# procedure summary: In-vitro assay of calcimimetics through modulation of calcium sensing receptor (CaSR): increase in intracellular calcium, FLIPR
# test parameters: HEK293 cells expressing hCaSR; intracellular calcium (Fluo4NW, FLIPR); 0.3 mM CaCl2; 8-point assay; read-out: EC50 in range
Where a name gives a salt, the structure may show the parent alone.
Known EC50 of a selection of molecules

Examples with answers:
{"molecule": "COc1cccc([C@@H](C)NCC2COCCN2c2cccc(C)c2)c1 (single isomer, unassigned) [10b]", "EC50": "< 20 nM"}
{"molecule": "C[C@@H](NCCC1CN(c2ccc(C(F)(F)F)c(C(=O)O)c2)CCO1)c1cccc2ccccc12 (single isomer, unassigned) [Example 110a, hydrochloride]", "EC50": "50 to 200 nM"}
{"molecule": "COc1cccc([C@@H](C)NCC2COCCN2c2cccc(C(F)(F)F)c2)c1 (single isomer, unassigned)", "EC50": "20 to 50 nM"}

Requested field: EC50. Item: C[C@@H](NCC1CN(CC2CCCC2)C(=O)CO1)c1cccc2ccccc12 (single isomer, unassigned) [Example-69a]
50 to 200 nM

Then C[C@@H](NCC1CN(c2cccc(C(F)(F)F)c2)CCO1)c1cccc2ccccc12 (some centres unmarked) ?
20 to 50 nM

Where these numbers come from: patent US9382216B2
